Quick reference for self-cleavage among some variants
B1: HDV Ribozyme (parent)
chain: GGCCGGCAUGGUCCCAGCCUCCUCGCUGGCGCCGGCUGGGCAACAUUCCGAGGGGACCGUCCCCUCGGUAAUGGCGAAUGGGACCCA

Variants of: B1
Assay: self-cleavage, relative activity (ratio to wild type); higher = more cleavage; co-transcriptional

Field: example entries. Status: answers known.
GGCCGGCAUGGUCCGAGCCUCCUCGCUGGCGCCGGCUGGGCAACAUUCCGAGGGGACCGUCCCCUCGGUAAUGGCGAAUGGGACUCA [C15G C85U]; 0.453
GGCCGGCAUGGUCCCAGCAUCCUCGCUGGCGCCGGCUGGGCAACAUUCCGAGGGUACCGUCCCCUCGGUAAUGGCGAAUGGGACCCA [C19A G55U]; 0.0923
GGCCGGCAUGGUCCCAGCCUCCUCGCUGGCGCCGGCUGGGCAACAUUCCGAGCGGACCGUCCCUUCGGUAAUGGCGAAUGGGACCCA [G53C C64U]; 0.703

// query // self-cleavage lookup, key: GGCCGGAAUGGUCCCAGCCUCCUCGCUGGCGCCGGCUGGGCAACAUUCCGAGGGGACAGUCCCCUCGGUAAUGGCGAAUGGGACCCA [C7A C58A]
// result 0.772

// query // self-cleavage lookup, key: GGCCGGCAUGGUUCCAUCCUCCUCGCUGGCGCCGGCUGGGCAACAUUCCGAGGGGACCGUCCCCUCGGUAAUGGCGAAUGGGACCCA [C13U G17U]
// result 0.612

// query // self-cleavage lookup, key: GGCCGGCGUGGUCCCAGCCUCCUCGCUGGCGCUGGCUGGGCAACAUUCCGAGGGGACCGUCCCCUCGGUAAUGGCGAAUGGGACCCA [A8G C33U]
// result 0.751

// query // self-cleavage lookup, key: GGCCGGCAUGGUCCCAGCCUCCUCGCUGGCGCCGGUUGGGCAACAUUCCGAGGGGUCCGUCCCCUCGGUAAUGGCGAAUGGGACCCA [C36U A56U]
// result 0.845

// query // self-cleavage lookup, key: GGCAGGCAUGGUCCCAGCCUCCUCGCUGGCGCCGGCUGGGCAACAAUCCGAGGGGACCGUCCCCUCGGUAAUGGCGAAUGGGACCCA [C4A U46A]
// result 0.151

// query // self-cleavage lookup, key: GGCCGGCAUGGUCCCAGCCUCCUCGCUGGCCCCGGCUGGGCAACAUUCCGAGGGGACCGUCCCCUCGGUAAUGGCGAAUGGGACCGA [G31C C86G]
// result 0.188

// query // self-cleavage lookup, key: GCCCGGCAUGGUCCCAGCCUCCUCGCUGGCGCCGGCUGGGCAACAUUCUGAGGGGACCGUCCCCUCGGUAAUGGCGAAUGGGACCCA [G2C C49U]
// result 0.132

// query // self-cleavage lookup, key: GGCCGGCAUGGUCCGGGCCUCCUCGCUGGCGCCGGCUGGGCAACAUUCCGAGGGGACCGUCCCCUCGGUAAUGGCGAAUGGGACCCA [C15G A16G]
// result 0.665

// query // self-cleavage lookup, key: GGCCGGCAUGGUCCCAGCCUCCGCGCUGGCGCCGGCCGGGCAACAUUCCGAGGGGACCGUCCCCUCGGUAAUGGCGAAUGGGACCCA [U23G U37C]
// result 0.751

// query // self-cleavage lookup, key: GGCCGGCAUGGUCCCAGCCUCCUCGCUGGCGCCGGCUGGGCAACAUUCCGAGGGGACCGUCCCAUCGGUAAUUGCGAAUGGGACCCA [C64A G73U]
// result 0.332

// query // self-cleavage lookup, key: GGCCUGCAUGGUCCCAGCCUCCUCGCUGGCGCCGGCUGGGCAACAUUCCGAGGGGACCGUCCCCUCGGUAAGGGCGAAUGGGACCCA [G5U U72G]
// result 0.277

// query // self-cleavage lookup, key: GGCCGGCAUGGUCCCGGCCUCCUCGCUAGCGCCGGCUGGGCAACAUUCCGAGGGGACCGUCCCCUCGGUAAUGGCGAAUGGGACCCA [A16G G28A]
// result 0.131

// query // self-cleavage lookup, key: GGCCGGCAUGGUCCCAGCCUCCUCGCUGGCGCCGGCUGGGCAACAUUCCGAGGGGACCGUCCCCACGGUAAUGGCGAAUGGGACCCU [U65A A87U]
// result 0.96

// query // self-cleavage lookup, key: GGCCGGCAAGGUCCCAGCCUCCUCGCUGGCGCCGGCUGGGCAACAUUCCGAGGGGACCGUCCGCUCGGUAAUGGCGAAUGGGACCCA [U9A C63G]
// result 0.502
